Target: mRORγ (Mus musculus, UniProt P51450)
Construct: expressed in transfected cells; host or cells: CHO cells, transient transfection
Sequence (P51450 with tags, fused parts or gaps): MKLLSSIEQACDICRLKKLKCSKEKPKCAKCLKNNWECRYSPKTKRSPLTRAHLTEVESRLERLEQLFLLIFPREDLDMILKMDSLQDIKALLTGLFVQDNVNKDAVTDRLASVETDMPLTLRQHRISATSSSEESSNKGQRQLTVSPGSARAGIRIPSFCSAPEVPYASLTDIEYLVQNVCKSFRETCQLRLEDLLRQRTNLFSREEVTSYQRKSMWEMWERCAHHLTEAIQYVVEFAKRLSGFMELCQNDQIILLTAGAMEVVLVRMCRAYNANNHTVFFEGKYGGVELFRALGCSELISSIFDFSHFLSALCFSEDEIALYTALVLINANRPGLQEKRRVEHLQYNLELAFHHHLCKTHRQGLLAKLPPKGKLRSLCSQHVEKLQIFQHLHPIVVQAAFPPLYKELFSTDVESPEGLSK
Assay: Transcriptional assay, Gal4-mRORγ with luciferase reporter in CHO cells
Format: cell-based
Details: Table 4A; medians of two or more assays; unit inferred; read-out: EC50 Transcriptional
Assay Metric: pEC50
# pEC50 = -log10(concentration in molar units)

Solved cases (2 shown):
INSERT INTO results (molecule, value) VALUES
  ('Cn1c(CNc2cccc(Cl)c2)nnc1SCC(=O)Nc1cccc2ccccc12 [OR-133167]', 5.48),
  ('CCn1c(CNc2cccc(C(F)(F)F)c2)nnc1SCC(=O)Nc1cccc2ccccc12 [OR-133099]', 5.98);

Input line: Field request: pEC50 | item: CCn1c(CNc2cccc(Cl)c2)nnc1SCC(=O)Nc1cccc2ccccc12 [OR-133097]
Output line: 5.84
